Target: T1, RTEL1∆762 (human, UniProt Q9NZ71-6 762-1300)
T1 sequence: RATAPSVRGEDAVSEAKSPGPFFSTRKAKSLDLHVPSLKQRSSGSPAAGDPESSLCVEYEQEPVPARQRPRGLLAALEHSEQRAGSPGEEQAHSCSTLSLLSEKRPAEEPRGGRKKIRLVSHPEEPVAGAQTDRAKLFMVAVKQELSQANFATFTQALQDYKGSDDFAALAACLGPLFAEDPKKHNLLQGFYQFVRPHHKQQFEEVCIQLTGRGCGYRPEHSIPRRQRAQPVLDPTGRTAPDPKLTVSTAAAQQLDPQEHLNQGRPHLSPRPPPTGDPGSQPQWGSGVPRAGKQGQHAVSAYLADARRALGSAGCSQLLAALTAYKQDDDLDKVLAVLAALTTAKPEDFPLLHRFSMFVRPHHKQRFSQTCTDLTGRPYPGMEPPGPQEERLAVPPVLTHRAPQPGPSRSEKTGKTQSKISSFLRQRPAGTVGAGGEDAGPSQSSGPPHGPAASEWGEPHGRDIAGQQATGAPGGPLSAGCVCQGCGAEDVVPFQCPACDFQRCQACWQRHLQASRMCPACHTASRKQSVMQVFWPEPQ
Assay: competition (fluorescence anisotropy); vs FAM-TERRA-MUT, 200 nM; error in main text misprinted as 0.74 nM; 20 mM Tris pH 7.5, 50 mM KCl, 0.5 mM TCEP, 0.5 mM MgCl2, 10% glycerol, 0.1% IGEPAL, room temperature 30 min; oligos refolded in 10 mM Tris pH 7.5, 100 mM KCl; EMSA legends give 150 or 300 mM KCl
Conditions: protein: recombinant; tags: 6xHis; chain copies: 2; no G4
READOUT_TYPE: Ki (nM)
// note: answer is a bare numeric in nM

Field request: Ki | item: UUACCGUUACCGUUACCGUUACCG (ssRNA) [TERRA-MUT competitor]
442
